- Measurement Description: gradient 5% acetonitrile 3 min, to 50% in 2 min, to 85% in 15 min, held 3 min, 100 µL/min
- Protocol Conditions: column: Zorbax Extend-C18 2.1 x 50 mm; eluents: water / acetonitrile, 0.1% formic acid
Observation Type: RP-LC retention time (s)
The reply should be a number in s, with the unit left off.

Return RP-LC retention time (reported value) for this molecule: `Cn1ncc2c3ccccc3n(CCCC(=O)NCCN3CCCCC3)c2c1=O` 618

Return RP-LC retention time (reported value) for this molecule: `Cn1cccc1-c1cc2n(n1)CCCN2C(=O)CCC(=O)N1CCc2ccccc2C1` 809

Return RP-LC retention time (reported value) for this molecule: `Cc1ccc(-c2nc3nc(C)cc(C)n3c2Nc2c(C)cccc2C)cc1` 806

Return RP-LC retention time (reported value) for this molecule: `O=C(c1ccoc1)N1CCC2(CCCCO2)CC1` 639

Return RP-LC retention time (reported value) for this molecule: CCOc1ccc(NC(=O)C2CCCN(c3cnc4nccnc4c3)C2)cc1 (stereo not given) 689

Return RP-LC retention time (reported value) for this molecule: `COC(=O)N1CCN(Cc2cccc(NC(=O)Nc3ccc(C)nc3)c2F)CC1` 577

Return RP-LC retention time (reported value) for this molecule: COc1ccccc1OCC(O)CN1CCN(CC(=O)Nc2c(C)cccc2C)CC1 (stereo not given) 683

Return RP-LC retention time (reported value) for this molecule: `O=c1cc(CSc2nnc(-c3cccc(Cl)c3)o2)nc2sccn12` 832

Return RP-LC retention time (reported value) for this molecule: `Cc1ccc(NC(=O)c2cn(-c3cc(-c4nc(C5CC5)no4)ccn3)cn2)c(C)c1` 1090

Return RP-LC retention time (reported value) for this molecule: Cc1ccccc1-c1nc2cnccn2c1NCCC(=O)NC(C)c1cccs1 (stereo not given) 659

Return RP-LC retention time (reported value) for this molecule: CC1CCC2(CC1)N=C(c1ccccc1)C(=O)N2CC(=O)Nc1ccc2c(c1)OCCO2 (stereo not given) 1120

Return RP-LC retention time (reported value) for this molecule: `COc1ccc(-c2nc(C)cc(C)c2CNC(=O)c2ccc(Br)o2)cc1` 634

Return RP-LC retention time (reported value) for this molecule: `O=C(Cn1cnc2nc3c(cc2c1=O)CCCC3)Nc1ccccc1Cl` 720

Return RP-LC retention time (reported value) for this molecule: `CCOc1cccc(-c2noc(Cc3nnc(-c4ccccc4)o3)n2)c1` 1060

Return RP-LC retention time (reported value) for this molecule: CC(Oc1cccc(F)c1)C(=O)NCCOc1ccccc1 (stereo not given) 857

Return RP-LC retention time (reported value) for this molecule: Cc1[nH]nc(-c2c(C)sc(C)c2S(=O)(=O)NC2CCCc3ccccc32)c1C (stereo not given) 1130

Return RP-LC retention time (reported value) for this molecule: CCN(CC)CCNC(=O)CN1C(=O)C2CCCCN2c2ccc(S(=O)(=O)N3CCCC3)cc21 (stereo not given) 633

Return RP-LC retention time (reported value) for this molecule: CCn1c(=O)c(N2CCCC(C(=O)N3CCN(c4cccc(C)c4C)CC3)C2)nc2ccccc21 (stereo not given) 1350

Return RP-LC retention time (reported value) for this molecule: Cc1cccc(S(=O)(=O)Nc2ccc(C3(C(=O)NCC4CCCO4)CC3)cc2)c1 (stereo not given) 828

Return RP-LC retention time (reported value) for this molecule: `Cc1ccc(F)cc1NC(=O)Cn1cnc(C)c(C)c1=O` 660

###

- Measurement Description: gradient 5% acetonitrile 3 min, to 50% in 2 min, to 85% in 15 min, held 3 min, 100 µL/min
- Protocol Conditions: column: Zorbax Extend-C18 2.1 x 50 mm; eluents: water / acetonitrile, 0.1% formic acid
Observation Type: RP-LC retention time (s)
The reply should be a number in s, with the unit left off.

Return RP-LC retention time (reported value) for this compound: `COCCNCc1ccc(-c2cccc(Cl)c2)o1` 647

Return RP-LC retention time (reported value) for this compound: `CC(C)c1nnc(-c2ccc(=O)n(CC(=O)N3CCN(c4ccccn4)CC3)c2)o1` 570

Return RP-LC retention time (reported value) for this compound: `Cc1noc(-c2ccc(OC3CN(C(=O)c4ccco4)C3)cc2)n1` 789

Return RP-LC retention time (reported value) for this compound: COCCNC(=O)C1c2ccccc2CC(=O)N1C(C)C (stereo not given) 648

Return RP-LC retention time (reported value) for this compound: Cc1csc(NC(=O)CN2C(=O)C3CCCCN3c3ccc(S(=O)(=O)N(C)C)cc32)n1 (stereo not given) 853

Return RP-LC retention time (reported value) for this compound: `COc1ncccc1CNC(=O)NCc1ccco1` 568

Return RP-LC retention time (reported value) for this compound: `COc1ccc(-c2cc(N3CCN(C(=O)Nc4ccc(OC)cc4OC)CC3)ncn2)cc1` 663

Return RP-LC retention time (reported value) for this compound: `Cc1oc2c(c1C(=O)NCc1cccc(Br)c1)C1=NCCN1C=N2` 654

Return RP-LC retention time (reported value) for this compound: `CN1CCN(CCCNC(=O)CCc2cn(-c3ccccc3)nc2-c2ccc3c(c2)OCO3)CC1` 614

Return RP-LC retention time (reported value) for this compound: CCC(C)NC(=O)c1ccc(CN2CCN(Cc3ccc(F)cc3)C(=O)C2=O)cc1 (stereo not given) 739

###

- Measurement Description: gradient 5% acetonitrile 3 min, to 50% in 2 min, to 85% in 15 min, held 3 min, 100 µL/min
- Protocol Conditions: column: Zorbax Extend-C18 2.1 x 50 mm; eluents: water / acetonitrile, 0.1% formic acid
Provide the recorded RP-LC retention time for the entries that follow.
The reply should be a number in s, with the unit left off.

Return RP-LC retention time (reported value) for this compound: `CCOC(=O)CC(=O)CSc1nc(-c2ccccc2)ns1` 993

Return RP-LC retention time (reported value) for this compound: CS(=O)(=O)N1CCCC(C(=O)NC2CCCC2)CCNC(=O)CC1 (stereo not given) 603

Return RP-LC retention time (reported value) for this compound: `CCn1ccc(C(=O)Nc2cnc(-c3cccc(Cl)c3)nc2)n1` 1020

Return RP-LC retention time (reported value) for this compound: `Cc1ccccc1NC(=O)Cn1c(C)nc2onc(C)c2c1=O` 738

Return RP-LC retention time (reported value) for this compound: `COc1ccc(NS(=O)(=O)c2c(C)sc(C)c2-c2cc(C(F)(F)F)on2)cc1OC` 1020

Return RP-LC retention time (reported value) for this compound: `Cc1ccccc1CC(=O)Nc1nnc(SCc2nnc(-c3ccccc3)o2)s1` 908

Return RP-LC retention time (reported value) for this compound: `Cn1nc(C(=O)N2C[C@@H]3C[C@H](NC(=O)c4cccs4)[C@H]2C3)c2ccccc21` 778

Return RP-LC retention time (reported value) for this compound: `Cc1ccc(F)cc1NS(=O)(=O)c1cc(-c2[nH]ncc2C(=O)N(C)C)oc1C` 706

Return RP-LC retention time (reported value) for this compound: `COC(=O)c1sccc1NC(=O)Cn1c(C)cc(C)c(-c2nc(-c3ccccc3)no2)c1=O` 1060

Return RP-LC retention time (reported value) for this compound: `CCCNC(=O)c1cc(-c2ccccc2)cn1CC` 977

###

- Measurement Description: gradient 5% acetonitrile 3 min, to 50% in 2 min, to 85% in 15 min, held 3 min, 100 µL/min
- Protocol Conditions: column: Zorbax Extend-C18 2.1 x 50 mm; eluents: water / acetonitrile, 0.1% formic acid
Provide the recorded RP-LC retention time for the entries that follow.
The reply should be a number in s, with the unit left off.

Return RP-LC retention time (reported value) for this compound: Cc1cccc(NC(=O)Cn2nc(N3CCCC(C)C3)c3ccccc3c2=O)c1 (stereo not given) 1090

Return RP-LC retention time (reported value) for this compound: `CCc1ccc(CNC(=O)c2cn3c(n2)CCCC3)cc1` 646

Return RP-LC retention time (reported value) for this compound: O=C(NC1CCCCC1)C1CCCN(c2ncnc3c2oc2ccccc23)C1 (stereo not given) 758

Return RP-LC retention time (reported value) for this compound: `CC(C)N1C(=O)c2cccnc2Sc2cc(NC(=O)C3CC3)ccc21` 733

Return RP-LC retention time (reported value) for this compound: `CCn1cc(C)c(C(=O)O)c1CC(=O)NC1CCCCCC1` 814

Return RP-LC retention time (reported value) for this compound: `COC(=O)c1cccc(Nc2ncccc2S(N)(=O)=O)c1` 777

Return RP-LC retention time (reported value) for this compound: CN1C(=O)C(CC(=O)NC2CCCCC2)Sc2ncccc21 (stereo not given) 703

Return RP-LC retention time (reported value) for this compound: `CCc1ccc(NC(=O)N2CCc3c(c(-c4nc(C5CC5)no4)nn3C)C2)cc1` 934

Return RP-LC retention time (reported value) for this compound: `CCc1nc2cc3c(cc2n1CC(=O)Nc1ccc2c(c1)OCCO2)OCCO3` 618

Return RP-LC retention time (reported value) for this compound: O=C(NC1CC1)c1cc(-c2cccs2)n(C2CCS(=O)(=O)C2)n1 (stereo not given) 710
